System: SETVI (Setaria viridis)
protocol: Postemergence herbicidal evaluation
Assay type: in vivo, (L.) Beau
condition summary: rate 0.0620 kg/ha
Label rule, in plain words: Postemergence herbicidal rating, SETVI of 1 and up is true (1), under 1 is false (0).

Is the recorded value of Postemergence herbicidal rating, SETVI equal to or greater than 1 for this compound? Cn1c(C(F)(F)F)cc(=O)n(-c2ccc3snc(C4OCC(C)(C)CO4)c3c2)c1=O [Compound 36]
true (1)

Is the recorded value of Postemergence herbicidal rating, SETVI equal to or greater than 1 for this compound? C#CCOC(=O)COc1ccsc1-c1nsc2ccc(-n3c(=O)cc(C(F)(F)F)n(C)c3=O)cc12 [Compound 39]
true (1)

Is the recorded value of Postemergence herbicidal rating, SETVI equal to or greater than 1 for this compound? Cc1ccsc1-c1nsc2ccc(-n3c(=O)cc(C(F)(F)F)n(C)c3=O)cc12 [Compound 4]
true (1)

Is the recorded value of Postemergence herbicidal rating, SETVI equal to or greater than 1 for this compound? C[C@H]1O[C@@H]1c1nsc2ccc(-n3c(=O)cc(C(F)(F)F)n(C)c3=O)cc12 [Compound 14]
true (1)

Is the recorded value of Postemergence herbicidal rating, SETVI equal to or greater than 1 for this compound? Cc1nnc(-c2nsc3ccc(-n4c(=O)cc(C(F)(F)F)n(C)c4=O)cc23)s1 [Compound 17]
false (0)

Is the recorded value of Postemergence herbicidal rating, SETVI equal to or greater than 1 for this compound? Cn1c(C(F)(F)F)cc(=O)n(-c2cc3c(-c4ccccn4)nsc3cc2F)c1=O [Compound 25]
true (1)
